biological target: bovine cerebral TPK1 (Bos taurus, UniProt A0A059UE90); assay: Inhibitory activity against P-GS1 phosphorylation by bovine cerebral TPK1; format: biochemical; details: P-GS1 phosphorylation, 41.7 μM [γ-32P] ATP, 25° C., 2 hours; read-out: IC50
Sequence (A0A059UE90 1-419): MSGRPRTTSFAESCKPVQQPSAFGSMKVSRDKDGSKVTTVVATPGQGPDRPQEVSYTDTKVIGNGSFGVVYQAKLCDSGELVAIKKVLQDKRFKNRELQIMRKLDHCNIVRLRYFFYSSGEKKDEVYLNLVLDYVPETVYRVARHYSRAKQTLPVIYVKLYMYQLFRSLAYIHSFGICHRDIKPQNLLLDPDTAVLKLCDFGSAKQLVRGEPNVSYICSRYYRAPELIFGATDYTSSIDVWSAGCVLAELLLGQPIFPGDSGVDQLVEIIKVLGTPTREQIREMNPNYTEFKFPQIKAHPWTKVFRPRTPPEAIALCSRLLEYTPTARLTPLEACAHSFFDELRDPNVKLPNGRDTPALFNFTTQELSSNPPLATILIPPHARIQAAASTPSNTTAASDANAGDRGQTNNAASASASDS
Hi! Could you tag entries with IC50 below 0.1 µM as true (1), and those at or above as false (0)? Much appreciated.

State whether 0.1 µM exceeds IC50 recorded for Cn1c(OC[C@H]2CCCN2C(=O)Oc2ccccc2)nc(-c2ccncn2)cc1=O .
true (1)

Let us now turn to Cn1c(OC[C@H]2CCCN2c2ccc(F)cc2)nc(-c2ccncn2)cc1=O
false (0)

Let us now turn to Cn1c(OC2CCN(c3ccccc3)CC2)nc(-c2ccncn2)cc1=O
true (1)

Let us now turn to CN1CCC(N2CCC(Oc3nc(-c4ccncn4)cc(=O)n3C)CC2)CC1
false (0)

Let us now turn to Cn1c(OC[C@H]2CCN(c3ccccc3)C2)nc(-c2ccncc2F)cc1=O
false (0)

Let us now turn to Cn1c(OC2CCN(CCC3CCNCC3)CC2)nc(-c2ccncn2)cc1=O
true (1)

Let us now turn to Cn1c(OC2CCN(Cc3ccccc3)CC2)nc(-c2ccncn2)cc1=O
false (0)

Let us now turn to Cn1c(OC2CCN(c3cccnc3)CC2)nc(-c2ccncn2)cc1=O
true (1)
